tgt: ComR S. mutans, full length (Streptococcus mutans)
testMethodNotes: ITC; 300 μM Prx (or PrxD32A) injected into 20 μM ComR S. mutans or DBD, 25 °C, gel filtration buffer (20 mM Tris-HCl pH 7.5, 100 mM NaCl, 1 mM β-ME); one site model
recordedMetric: Kd (nM)
Kindly provide the numeric value in nM only, without the unit symbol.

Exercise: For the binder paratox (Prx) from S. pyogenes MGAS315 (natural protein) MLTYDEFKQAIDRGYITADTVMIVRKNGQIFDYVLPNEKIKNGEIVTDEKVEEVLVELSR , give its reported Kd.
Key: 390

Where do these numbers come from? They come from paper PMC8383118.
